Tested on: SF-268 CNS
assayText: NCI tumour cell line growth inhibition, 48 h
Param threshold (20 µM) applies to TGI; output criterion met when value >= threshold, criterion not met when value < threshold.

# check: TGI of COc1ccc2nc3ccccc3c(NCc3ccc(F)cc3)c2c1 is greater than or equal to 20 µM
criterion not met

Input CC1CC2CCCC(O)=C2C(=O)O1 (configuration not stated)
criterion met

Input NC1CCN(Cc2ccccc2)CC1
criterion met

Input N=c1c2c(-c3ccccc3)c(-c3ccccc3)n(Cc3ccccc3)c2ncn1C1CCC(O)CC1 (configuration not stated)
criterion not met

Input O=C(O)COc1ccccc1C(=O)Nc1ccccc1
criterion met

Input COC(=O)/C=C\C(C#N)(C#N)N=Cc1ccc(C)cc1
criterion not met

Input N[C@@H](Cc1ccccc1)C(=O)N1CCC[C@@H]1P(=O)(Oc1ccccc1)Oc1ccccc1
criterion met

Input O=C1CCC2(c3ccc(Cl)cc3)Nc3cc(Cl)ccc3N12 (configuration not stated)
criterion met

Input COc1cc(OC)cc(C(=O)CC(=O)c2cc(OC)cc(OC)c2)c1
criterion met

Input S=c1c2cn[nH]c2nc2scc(-c3ccc(Cl)cc3)n12
criterion met

Input CC1=Cc2cccc(C)c2C(=O)C1=O
criterion met

Input O=C(/C(=C/c1ccc(Cl)cc1)c1ccccc1)c1ccccc1
criterion met

----------
Test system: HCT-15 colon
assayText: NCI tumour cell line growth inhibition, 48 h
experimentalEndpoint: GI50

Param readout = GI50; param system = HCT-15 colon; param query = CCOC(=O)Nc1cc2c(c(N)n1)N=C(c1ccccc1)CO2 ; response: value
89.4 nM

Input O=C(Nc1cccc(C(F)(F)F)c1)c1ccc(NC2=C(Cl)C(=O)N(Cc3ccc(Cl)cc3Cl)C2=O)cc1
2310 nM

Input CNCCOC(=O)/C=C1\CC[C@H]2[C@@H]([C@@H](O)C(=O)[C@@H]3[C@]2(C)CC[C@H](O)[C@]3(C)C(=O)OC)[C@H]1C
608 nM

Input CC(NCCC(c1ccccc1)c1ccccc1)c1ccccc1 (centres undefined)
2570 nM

Input COc1cnc2c(c1)C(=O)c1c-2n(CCCNC2=NCCS2)c(=O)c2cc([N+](=O)[O-])ccc12
1170 nM

Input CCN1CCN(c2cc(C)c3cc(NC(=O)c4ccc(OC)c(OC)c4)ccc3n2)CC1
3020 nM

Input O=C(NC[C@H](O)CN1CCc2ccccc2C1)c1cc(NC2COC2)ncn1
22700 nM

Input O=C(c1ccco1)c1c(C(F)(F)F)nc2ccc(Cl)cc2[n+]1[O-]
61000 nM

Input CC(=O)Nc1ccc(-c2csc(Nc3cccc(-c4csc(C)n4)c3)n2)cc1
289 nM

----------
Test system: UACC-257 melanoma
assayText: NCI tumour cell line growth inhibition, 48 h; in the data active = GI50 below about 0.43 µM; inactive = the rest
// allowed return values: active, inactive

Hey, what did the test say about COC(=O)c1ccc2c(c1)C(=O)c1c-2n(CCCN=[N+]=[N-])c(=O)c2cc(OC)c(OC)cc12 ?
inactive

Input COC(=O)[C@]12CC[C@@H](C)[C@H](C)[C@@H]1C1=CC[C@@H]3[C@@]4(C)C[C@@H](O)[C@H](O)[C@@](C)(CO)C4=CC[C@@]3(C)[C@]1(C)CC2
inactive

Input Cc1cc(N[C@@H]2CCC[C@H](Nc3ccnc4cc(Cl)ccc34)C2)nc(N2CCCCCC2)n1
inactive

Input Nc1ncc(-c2ccc3ncnc(Nc4ccc(F)c(Cl)c4)c3c2)cn1
inactive

Input CN1CCN(c2ccc(Nc3cc(-c4cccc(-n5ccc6cc(C7CC7)cc(F)c6c5=O)c4CO)cn(C)c3=O)nc2)CC1
inactive

Input Cc1nc(Nc2cccnc2)sc1C(=O)/C=C/c1ccc(F)cc1
inactive

Input O=C(NC[C@H](O)CN1CCc2ccccc2C1)c1cc(NC2COC2)ncn1
inactive

Input COC(=O)c1c2c(c(C)[n+]([O-])c1C)C(=O)C=C(NCc1ccc(F)cc1)C2=O
active

Input N=c1c2c(-c3ccccc3)c(-c3ccccc3)n(Cc3ccccc3)c2ncn1C1CCC(O)CC1 (stereo not drawn)
inactive

Input COc1ccc(-c2ccc(=O)oc2C#Cc2cc(OC)c(OC)c(OC)c2)cc1O
inactive

Input O=c1c(F)cn(Cc2ccc(C34CC5CC(CC(C5)C3)C4)c(O)c2)c(=O)n1Cc1ccc(C23CC4CC(CC(C4)C2)C3)c(O)c1
inactive

Input CCOC(=O)N[C@H]1CCc2cc(OC)c(OC)c(OC)c2-c2ccc(SC)c(=O)cc21
inactive

Input Cc1nnc(Nc2ccc(NC(=O)Nc3ccc(Cl)cc3)cc2)c2ccccc12
inactive

Input O=C(Nc1ccc(Br)cc1F)c1cc(Cl)ccc1O
inactive

Input CCn1c(O)c(/C=N/NC(=O)C(C)c2ccc(CC(C)C)cc2)sc1=S (stereo not drawn)
inactive

Input NC(=O)c1c(NC(=O)c2ccccc2)sc2c1CCC(=O)C2
inactive

Input CC(=O)ON1CCCC(P(=O)(OCCSC(=O)C(C)(C)C)OCCSC(=O)C(C)(C)C)C1=O (stereo not drawn)
inactive

Input CC(=O)Nc1ccc(-c2csc(Nc3cccc(-c4csc(C)n4)c3)n2)cc1
inactive

----------
System: HCC-2998 colon
assayText: NCI tumour cell line growth inhibition, 48 h
experimentalEndpoint: TGI (µM)
API: value field is a number in µM; no unit string.

Reported TGI for C[n+]1c(/C=C/c2c(O)ccc3ccccc23)ccc2ccccc21 : what is it?
13.4

Input COC1=CC(=O)c2c(c(-c3nc(C)cs3)cn2C)C1=O
18

Input CN(C)C1CCN(C(=O)c2ccc(NC(=O)Nc3ccc(-c4nc(N5CCOCC5)c5cccn5n4)cc3)cc2)CC1
5.86

Input CC(C)C1=Cc2ccc3c(c2C(=O)C1=O)CCCC3(C)C
32.7

Input C=C1C(=O)CC2C1CC(=O)/C(C)=C/CCC(C)(O)C2O (stereo not drawn)
17.1

Input COc1ccc(C2c3cn[nH]c3CC3CCCCC32)cc1 (stereo not drawn)
35

Input Cc1nnc(Nc2ccc(NC(=O)Nc3ccc(Cl)cc3)cc2)c2ccccc12
8.09

Input Cc1cc(/N=C/c2ccc(N(C)C)cc2)n(-c2ccccc2)n1
61.7

Input COC(=O)/C=C\C(C#N)(C#N)N=Cc1ccc(C)cc1
35.3

Input CCn1c(O)c(/C=N/NC(=O)C(C)c2ccc(CC(C)C)cc2)sc1=S (stereo not drawn)
13.7

Input CCC[CH2][Sn]([CH2]CCC)([O]C(=O)c1ccc(OC)c(OC)c1OC)[O][Sn]([CH2]CCC)([CH2]CCC)[O]C(=O)c1ccc(OC)c(OC)c1OC
1.5

----------
Task for the reader: assign each of the following compounds its reported TGI.
Tested on: HCT-15 colon
assayText: NCI tumour cell line growth inhibition, 48 h

Reported TGI for NC(=O)c1c(NC(=O)c2ccccc2)sc2c1CCC(=O)C2 : what is it?
1.93 µM

Input COc1ccc(C(=O)/C=C/c2ccc(OCCCOc3ccc(/C=C/C(=O)c4ccc(OC)cc4)cc3)cc2)cc1
> 100 µM

Input CC(NCCC(c1ccccc1)c1ccccc1)c1ccccc1 (stereo not given)
7.83 µM

Input C[C@H](CCC(=O)O)[C@H]1CC[C@H]2[C@@H]3C(=O)C[C@@H]4C[C@H](O)CC[C@]4(C)[C@H]3C[C@H](O)[C@]12C
> 100 µM

Input CC(c1ccccc1)N1CCN(C(C)c2ccccc2)CC1 (stereo not given)
> 100 µM

Input O=C(O)C(Cl)(Cl)Cl
> 100 µM

Input CCC[CH2][Sn]([CH2]CCC)([O]C(=O)c1ccc(OC)c(OC)c1OC)[O][Sn]([CH2]CCC)([CH2]CCC)[O]C(=O)c1ccc(OC)c(OC)c1OC
0.526 µM

Input O=c1[nH][nH]c(=O)n1CCCCCCn1c(=O)[nH][nH]c1=O
> 100 µM

Input Cc1nc(Nc2ccc(Cl)cc2)sc1C(=O)NNC(=S)NN
45.5 µM

Input CC(=NNC(=S)Nc1ccccc1)c1cccc(C(C)=NNC(=S)Nc2ccccc2)n1
> 100 µM

Input COC(=O)C(=Cc1cc(OC)c(OC)c(OC)c1-c1cc2c(cc1C1(C)OCCS1)OCO2)C(=O)OC (stereo not given)
> 100 µM

Input O=C(/C=C/c1ccccc1)Oc1ccc(C(=O)/C=C/c2ccccc2)cc1
17.3 µM

Input C/C(C[n+]1ccccc1)=N\N=C(N)N
> 100 µM

Input Cc1cc(N[C@@H]2CCC[C@H](Nc3ccnc4cc(Cl)ccc34)C2)nc(N2CCCCCC2)n1
2.62 µM

Input Cc1c(/C=N\NC(=S)NCCNC(=S)N/N=C\c2c(C)n(C)n(-c3ccccc3)c2=O)c(=O)n(-c2ccccc2)n1C
> 100 µM

Input S=c1c2cn[nH]c2nc2scc(-c3ccc(Cl)cc3)n12
26.1 µM

Input Cc1ccc2nc(/C(=C/c3ccc(/C=C(\NC(=O)c4ccccc4)c4nc5ccc(C)cc5[nH]4)c(C)c3)NC(=O)c3ccccc3)[nH]c2c1
> 100 µM

Input CCOC(=O)c1nc2c(OC)nn(O)cc-2c1[N+](=O)[O-]
36.2 µM

Input CCOC(=O)c1c(-c2ccc(O)c(OC)c2)c(C#N)c(=S)n(C2OC(CO)C(O)C(O)C2O)c1-c1ccccc1 (stereo not given)
> 100 µM

Input COc1cc2c(cc1OC)C1C3CCCCC3CCN1CC2 (stereo not given)
> 100 µM
